Test system: Human PBMCs
Experiment: CD3/CD28 mediated PBMC proliferation assay
Assay type: cell-based
Details: proliferation of human PBMCs stimulated with anti-CD3 and anti-CD28, 72 hours, Cell Titer-Glo
Please go through the items and note down their EC50.

input: // returns reported EC50 for input "C=CC(=O)Nc1cccc(-n2c(NC(=O)c3ccc(C#N)cc3)nc3cc(CN[C@@H](C)C(C)(C)C)ccc32)c1"
output: 10 to 100 nM

input: GET /values?readout=EC50&item= "C=CC(=O)N[C@H]1CC[C@@H](n2c(NC(=O)c3ccns3)nc3cc(CN[C@@H](C)C(C)(C)C)ccc32)CC1"
output: > 100 nM

input: I have this compound here, "C=CC(=O)Nc1cccc(-n2c(NC(=O)c3ccns3)nc3cc(CN[C@H]4CC[C@H](O)CC4)ccc32)c1" , and I need its recorded EC50.
output: > 100 nM

input: Which EC50 reading was recorded for the compound "C/C=C/C(=O)Nc1cccc(-n2c(NC(=O)c3ccc(C(F)F)s3)nc3cc(CN[C@@H](C)C(C)(C)C)ccc32)c1" ?
output: > 100 nM

input: Field request: EC50 | item: "C=CC(=O)Nc1cccc(-n2c(NC(=O)c3cccnc3)nc3cc(CN[C@@H](C)C(C)(C)C)ccc32)c1"
output: 10 to 100 nM

input: Tell me the measured EC50 of "C=CC(=O)Nc1cccc(-n2c(NC(=O)c3ccno3)nc3cc(CN[C@H]4CC[C@H](O)CC4)ccc32)c1" , please.
output: > 100 nM

input: Item "C=CC(=O)Nc1cccc(-n2c(NC(=O)c3ccns3)nc3cc(CN4CCOCC4)ccc32)c1" has what recorded EC50?
output: 10 to 100 nM

input: Data request, read-out EC50, for "C=CC(=O)Nc1cccc(-n2c(NC(=O)c3ccc(C(F)F)s3)nc3cc(CN[C@H]4CC[C@@H](O)CC4)ccc32)c1"
output: < 10 nM

input: Entry "C=CC(=O)Nc1cccc(-n2c(NC(=O)c3ccccn3)nc3cc(CN[C@@H](C)C(C)(C)C)ccc32)c1" has what EC50?
output: > 100 nM

input: What does the data say about its EC50? Entry: "C=CC(=O)N(C)[C@H]1CC[C@@H](n2c(NC(=O)c3ccc(C(F)F)s3)nc3cc(CN[C@@H](C)C(C)(C)C)ccc32)CC1"
output: > 100 nM

input: Returns the measured EC50 for the input compound. Input: "C=CC(=O)Nc1cccc(-n2c(NC(=O)c3ccno3)nc3cc(CN4CCOCC4)ccc32)c1"
output: 10 to 100 nM

input: Suppose we examine the compound "C=CC(=O)Nc1cccc(-n2c(NC(=O)c3ccc(-c4cnco4)s3)nc3cc(CN[C@@H](C)C(C)(C)C)ccc32)c1" ; what EC50 value has been reported?
output: < 10 nM

input: Looking for the measured EC50 of "C=CC(=O)Nc1cccc(-n2c(NC(=O)c3ccc(C(F)F)s3)nc3cc(CN[C@@H](C)CC)ccc32)c1" , can you help?
output: < 10 nM

input: Param item = "C=CC(=O)Nc1cccc(-n2c(NC(=O)c3ccc(C(F)F)s3)nc3cc(CN4CCN(CCO)CC4)ccc32)c1" ; retrieve measured EC50.
output: < 10 nM

input: Recorded EC50 for "C=CC(=O)Nc1cccc(-n2c(NC(=O)c3cccs3)nc3cc(CN[C@@H](C)C(C)(C)C)ccc32)c1" , please?
output: 10 to 100 nM

input: Requested field: EC50. Item: "C=CC(=O)Nc1cccc(-n2c(NC(=O)c3ccc(C(F)F)s3)nc3cc(CNCC(C)(C)CO)ccc32)c1"
output: < 10 nM

input: Quick check: EC50 of "C=CC(=O)Nc1cccc(-n2c(NC(=O)c3ccc(C(F)F)s3)nc3cc(CN[C@H]4CC[C@H](O)CC4)ccc32)c1" ?
output: < 10 nM

input: Suppose we examine the compound "C=CC(=O)Nc1cccc(-n2c(NC(=O)c3ccc(C(F)F)s3)nc3cc(CN4CCC[C@H]4CO)ccc32)c1" ; what EC50 value has been reported?
output: < 10 nM

input: May I ask what EC50 has been recorded for "C=CC(=O)Nc1cccc(-n2c(NC(=O)c3ccns3)nc3cc(CN[C@@H](C)C(C)(C)C)ccc32)c1" ?
output: < 10 nM

input: Given the entry "C=CC(=O)Nc1cccc(-n2c(NC(=O)c3ccc(C(F)F)s3)nc3cc(CNCC(C)(C)C)ccc32)c1" , report its measured EC50.
output: < 10 nM

input: Which EC50 is reported for this compound? "C=CC(=O)Nc1cccc(-n2c(NC(=O)c3ccc(C(F)F)s3)nc3cc(CNCCCO)ccc32)c1"
output: < 10 nM

input: So what does the record say about EC50 for "C=CC(=O)Nc1cccc(-n2c(NC(=O)c3ccc(F)cc3)nc3cc(CN[C@@H](C)C(C)(C)C)ccc32)c1" ?
output: > 100 nM

input: Requested read-out: EC50. Entry: "C=CC(=O)Nc1cccc(-n2c(NC(=O)c3ccc(C(F)F)s3)nc3cc(N(C)S(C)(=O)=O)ccc32)c1"
output: 10 to 100 nM

input: Report EC50 for "C=CC(=O)N[C@@H]1CC[C@H](n2c(NC(=O)c3ccc(C(F)F)s3)nc3cc(CN[C@@H](C)C(C)(C)C)ccc32)C1" please.
output: 10 to 100 nM

input: Param item = "C=CC(=O)Nc1cccc(-n2c(NC(=O)c3ccnn3C)nc3cc(CN[C@@H](C)C(C)(C)C)ccc32)c1" ; retrieve measured EC50.
output: 10 to 100 nM

input: Can you share its EC50? I mean this compound: "C=CC(=O)Nc1cccc(-n2c(NC(=O)c3ccc(C(F)F)s3)nc3cc(CNCCOCCOC)ccc32)c1"
output: 10 to 100 nM

input: I am curious: what EC50 value has been reported for "C=CC(=O)Nc1cccc(-n2c(NC(=O)c3ccc(C(F)F)s3)nc3cc(N(C)C(=O)[C@H](C)N4CCOCC4)ccc32)c1" ?
output: 10 to 100 nM

###

Could you please report measured EC50 for the items listed next?
System: Human PBMCs
Test: CD3/CD28 mediated PBMC proliferation assay
Format: cell-based
Conditions: proliferation of human PBMCs stimulated with anti-CD3 and anti-CD28, 72 hours, Cell Titer-Glo
Protocol: Inhibition of cellular ITK was assessed by measuring proliferation of PBMCs following stimulation with anti-CD3 and anti-CD28 antibodies. Individual wells of 96 well tissue culture plates were coated with 50 μL of 5 μg/mL anti-CD3 (OKT3, eBiosciences) for 2 hours at 37° C. […] The cells were placed in a humidified 37° C. incubator with 5% CO2 for 72 hours and metabolic viability was measured by quantification of ATP levels with Cell Titer-Glo (Promega catalog # G9242). […]

input: Entry under review: "C=CC(=O)Nc1cccc(-n2c(NC(=O)c3ccc(C(F)F)s3)nc3cc(OCc4ccccc4)ccc32)c1" . Reported EC50?
output: > 0.1 µM

input: Give its EC50 value. Item: "C=CC(=O)N[C@H]1CC[C@@H](n2c(NC(=O)c3ccc(-c4cnco4)s3)nc3cc(CN[C@@H](C)C(C)(C)C)ccc32)CC1"
output: 0.01 to 0.1 µM

input: Any idea what its EC50 is? The compound is "C=CC(=O)Nc1cccc(-n2c(NC(=O)c3ccc(C(F)F)s3)nc3cc(CN4CCC[C@@H]4CO)ccc32)c1"
output: < 0.01 µM

input: What measured EC50 goes with "C=CC(=O)Nc1cccc(-n2c(NC(=O)c3ccc(C(F)F)s3)nc3cc(CN[C@@H](CO)C(C)(C)C)ccc32)c1" ?
output: < 0.01 µM

input: # EC50 lookup, item "C=CC(=O)N(C)[C@H]1C[C@@H](n2c(NC(=O)c3ccc(C(F)F)s3)nc3cc(CN[C@@H](C)C(C)(C)C)ccc32)C1"
output: 0.01 to 0.1 µM

input: Which EC50 value is on record for "C=CC(=O)Nc1cccc(-n2c(NC(=O)c3cccc(C#N)c3)nc3cc(CN[C@@H](C)C(C)(C)C)ccc32)c1" ?
output: 0.01 to 0.1 µM

input: Please give the measured EC50 for this compound: "C=CC(=O)Nc1cccc(-n2c(NC(=O)c3ccc(C(F)F)s3)nc3cc(CNCCCOCCOCCCNC(C)=O)ccc32)c1"
output: 0.01 to 0.1 µM

input: For the compound "C=CC(=O)Nc1ccc(-n2c(NC(=O)c3ccc(C(F)F)s3)nc3cc(CN[C@@H](C)C(C)(C)C)ccc32)cc1" , what EC50 is on record?
output: > 0.1 µM

input: Give its EC50 value. Item: "C=CC(=O)N[C@H]1C[C@@H](n2c(NC(=O)c3ccc(C(F)F)s3)nc3cc(C(=O)NC4CCCCC4)ccc32)C1"
output: > 0.1 µM

input: Which value of EC50 has been reported for "C=CC(=O)Nc1cccc(-n2c(NC(=O)c3cncnc3)nc3cc(CN[C@@H](C)C(C)(C)C)ccc32)c1" in the records?
output: 0.01 to 0.1 µM

input: Any idea what its EC50 is? The compound is "C=CC(=O)N[C@H]1CC[C@@H](n2c(NC(=O)c3ccc(C#N)cc3)nc3cc(CN[C@@H](C)C(C)(C)C)ccc32)CC1"
output: > 0.1 µM

input: Quick one: EC50 for "C=CC(=O)N[C@H]1CC[C@@H](n2c(NC(=O)c3cccnc3)nc3cc(CN[C@@H](C)C(C)(C)C)ccc32)CC1" ?
output: > 0.1 µM

input: Look up EC50: "C=CC(=O)N[C@@H]1CCC[C@H](n2c(NC(=O)c3ccc(C(F)F)s3)nc3cc(CN[C@@H](C)C(C)(C)C)ccc32)C1"
output: 0.01 to 0.1 µM
